- assayed.target: HIV-1 Env of AC10.29 (HIV-1)
- method: cell-based or functional assay
assay.endpoint: neutralization IC50

CAP256-VRC26.11 (antibody, V domains shown) VH: EVQLVESGGGVVPPGKSLTLSCVASRFTFSAFGMHWVRQAPGKGLEWVASISFAGIKKYYADSVKGRFSISRDNSNTLFLQMNGLRGEDTGLYHCVKDMRELECEEWASDYYDFGKPQPCLDRRGVSGISAWWGPGTMVTVSS VL: QSVLTQPPSVSAAPGQNVTISCSGPPSHIEKNDVSWYQRLPGMAPKMVIYESKRRPLGIPVRFSASRSGSSATLVITGLQTADEADYYCGTWDGRMNFGTGTTVSVLG: > 50 µg/mL

input: I would be grateful if you could share the reported neutralization IC50 for CAP256-VRC26.08 (antibody, V domains shown) VH: EVQLVESGGGVVQPGRSLTLSCAASQFTFSNYGMHWVRQAPGKGLEWVASVSNDGTKKYHGDSVWGRFTISRDNSKNTLFLQMSSLRAEDTAVYFCVRDQREDECEEWWSDYYDFGRELPCRKFRGLGLAGIFDIWGHGTMVTVSS VL: QSALTQPPSVSAAPGQKVTISCSGNSSNIGNNFVSWYQQVPGTAPKLLLYETYRRPSGIPDRFSGSKSGTSATLAITGLQTGDEADYYCTVWGVRKGVGAVFGTGTKVTVLG .
output: > 50 µg/mL

input: I would be grateful if you could share the reported neutralization IC50 for CAP256-VRC26.01 (antibody, V domains shown) VH: EVQVVESGGGVVQPGRSLRLSCTASGFTFSNFAMGWVRQAPGKGLEWVAFISSDGSNKNYGDSVKGRFTISRDNSKNTVFLQMNSLRVEDTALYYCAKDVGDYKSDEWGTEYYDISISYPIQDPRAMVGAFDLWGQGTMVTVSP VL: QSVLTQPPSVSAAPGQKVTISCSGSSSTIGNNYVSWYRLLPGTAPKLLIYKNDNRPSGIPDRFSGSKSGTSATLGISGLQTGDEADYYCGTWDTSLSGGGVFGTGTKVTVLG .
output: > 50 µg/mL

input: I would be grateful if you could share the reported neutralization IC50 for CAP256-VRC26.07 (antibody, V domains shown) VH: EVQLVESGGGVVQPGRSLRLSCVGSQFSFNRYGMHWVRQAPGKGLEWVAGISFDGTDRYHADNVWGRFTISRDNSKNTLYLQMSSLRAEDTALYYCAKDLREDECEEWWSDYYDFGKKLPCRKSRGVAGVFDKWGQGTMVTVSS VL: QAVLTQPPSVSAAPGQNVTISCSGSGSNIGNNFVSWYQQRPGTAPKLLIYESNKRPSGIPDRFSGSKSGTSATLAITGLQTGDEAYYYCATWAARLNSARVFGTGTMVTVLG .
output: > 50 µg/mL

input: I would be grateful if you could share the reported neutralization IC50 for CAP256-VRC26.06 (antibody, V domains shown) VH: EVQLIESGGGVVQPGRSLRLSCGASGFSFNNYGMHWVRQAPGKGLEWVAGISFAGIKKYYGTSVKGRFTISRDNSKNNFYLQMNSLRVEDTALYYCARDLRELECEEWTLYNYYDFGSRGPCVDPRGVAGSFDVWGQGTMVTVSS VL: QSVLTQPPSVSAAPGQKVTISCSGSTSKIGQNSVSWYQQLPGTAPKLLIYENDRRPSGTPDRFSGSKSGTSATLAITGLQTGDEAEYYCETWDGSGGVFGTGTKVTVLG .
output: 0.022 µg/mL
